# Test system: XIP peptide (Xip251-270)
# TEST_NAME: small-molecule binders of XIP peptide, primary screen, biochemical, small-molecule microarray, fluorescence 635/667 nm, 0.5 µg/mL protein (AID 1183)
# MEASUREMENT_SETUP: small-molecule microarray binding, fluorescence 635 nm; higher = more signal
Quick list: composite z-score per entry.
OUTCOME_MEASURE: composite z-score

INSERT INTO measurements (structure_string, recorded_measurement) VALUES
  ('COC(=O)[C@@]1(Cc2ccccc2)[C@H]2c3cc(C(=O)N4CCCC4)n(Cc4ccccn4)c3C[C@H]2CN1C(=O)c1ccccc1', 0.91),
  ('CO[C@@H]1COC(=O)CC=C[C@@H](C)COC(=O)[C@H](COCc2ccccc2)NC(=O)CC=C[C@H]1C', -0.453),
  ('COc1ccc(O[C@H]2C=C[C@@H](c3ccccc3)O[C@@H]2COC(=O)CCC(C)=NO[C@H](C)c2cn([C@@H]3COC[C@H]3O)nn2)cc1', 0.596),
  ('CC(C)C[C@@H]1NC(=O)[C@H]2C[C@@H](C(=O)O)[C@@H](c3ccc(O)cc3)N2C1=O', 0.86);
